Let's look at some molecules and their measured solubility thermodynamic.
# experiment_notes: Thermodynamic solubility of compound in pH 7.4 solution
# Format: physicochemical
# conditions: buffer, read-out: Therm_solubility

| sample_smiles | measurement_unit | readout_qualifier | solubility thermodynamic |
| --- | --- | --- | --- |
| CN1CCN(CCOc2ccc(C3CCN(c4ccc5nnc(C(F)(F)F)n5n4)CC3)cc2)CC1=O | µM | = | 65 |
| COc1nnc2ccc(N3CCC(c4ccc(N5CCC(N6CCN(C)C(=O)[C@H]6C)CC5)cc4)CC3)nn12 | µM | = | 760 |
| C[C@@H]1C(=O)N(C)CCN1CCOc1ccc(C2CCN(c3ccc4nnc(Cl)n4n3)CC2)cc1 | µM | = | 63 |
| CSc1nnc2ccc(N3CCC(c4ccc(OCCN5CCN(C)C(=O)[C@H]5C)cc4)CC3)nn12 | µM | = | 660 |
| COc1nnc2ccc(N3CCC(c4ccc(OCCN5[C@H](C)CN(C(C)=O)C[C@@H]5C)cc4)CC3)nn12 | µM | > | 1000 |

* * *

# experimental_system: Bromodomain-containing protein 4 (Homo sapiens, UniProt O60885)
# experiment_notes: Inhibition of BRD4 in human MM1S cells assessed as down regulation of c-Myc incubated for 16 hrs by flow cytometry
# Assay type: cell-based
Let's look at some molecules and their measured log10(IC50).
recorded_endpoint: log10(IC50) (log10 of the value in nM)

| sample_smiles | endpoint_result |
| --- | --- |
| COc1nnc2ccc(N3CCC(c4ccc(OCCN5[C@H](C)CN(C)C(=O)[C@H]5C)cc4)CC3)nn12 | 1.10 |
| COc1nnc2ccc(N3CCC(c4ccc(OCCN5CCN(C)C(=O)[C@@H]5C)cc4)CC3)nn12 | 1.90 |
| Cc1nnc2ccc(N3CCC(c4ccc(OCCN5CCN(C)C(=O)[C@H]5C)cc4)CC3)nn12 | 1.40 |
| COc1nnc2ccc(N3CCC(c4ccc(OCCN5CCN(C)C(=O)[C@H]5C)cc4)CC3)nn12 | 1.10 |
| COc1nnc2ccc(N3CCC(c4ccc(CCN5CCN(C)C(=O)[C@H]5C)cc4)CC3)nn12 | 1.00 |
| C[C@@H]1C(=O)N(C)CCN1CCOc1ccc(C2CCN(c3ccc4nnc(C(F)(F)F)n4n3)CC2)cc1 | 1.00 |
| CSc1nnc2ccc(N3CCC(c4ccc(OCCN5CCN(C)C(=O)[C@H]5C)cc4)CC3)nn12 | 1.30 |
| C[C@@H]1C(=O)N(C)CCN1CCOc1ccc(C2CCN(c3ccc4nncn4n3)CC2)cc1 | 3.10 |
| C[C@@H]1C(=O)N(C)CCN1CCOc1ccc(C2CCN(c3ccc4nnc(Cl)n4n3)CC2)cc1 | 1.90 |
| COc1nnc2ccc(N3CCC(c4ccc(OCCCN5CCN(C)C(=O)[C@H]5C)cc4)CC3)nn12 | 0.50 |
| C[C@@H]1C(=O)N(C)CCN1CCOc1ccc(C2CCN(c3ccc4nnc(N(C)C)n4n3)CC2)cc1 | 1.20 |

* * *

# experimental_system: Bromodomain-containing protein 4 (Homo sapiens, UniProt O60885)
# experiment_notes: Inhibition of BRD4 in human MCF7 cells assessed as down regulation of ERalpha after 18 to 24 hrs by Hoechst staining based cellomics arrayscan analysis
# Format: cell-based
Let's look at some compounds and their measured log10 of IC50.
recorded_endpoint: log10 of IC50 (log10 of the value in nM)

| sample_smiles | log10 of IC50 |
| --- | --- |
| COc1nnc2ccc(N3CCC(c4ccc(OCCN5CCN(C)C(=O)[C@@H]5C)cc4)CC3)nn12 | 2.50 |
| COc1nnc2ccc(N3CCC(c4ccc(N5CCC(N6CCN(C)C(=O)[C@H]6C)CC5)cc4)CC3)nn12 | 2.20 |
| CN1CCN(CCOc2ccc(C3CCN(c4ccc5nnc(C(F)(F)F)n5n4)CC3)cc2)CC1=O | 2.70 |
| COc1nnc2ccc(N3CCC(c4ccc(N5CC(CN6CCN(C)C(=O)[C@H]6C)C5)cc4)CC3)nn12 | 0.60 |
| COc1nnc2ccc(N3CCC(c4ccc(OCCN5[C@H](C)CN(C(C)=O)C[C@@H]5C)cc4)CC3)nn12 | 0.20 |
| CN1CCN(CCOc2ccc(C3CCN(c4ccc5nnc(C(F)(F)F)n5n4)CC3)cc2)C(=O)C1 | 3.00 |
| CSc1nnc2ccc(N3CCC(c4ccc(OCCN5CCN(C)C(=O)[C@H]5C)cc4)CC3)nn12 | 1.50 |
| COc1nnc2ccc(N3CCC(c4ccc(CCN5CCN(C)C(=O)[C@H]5C)cc4)CC3)nn12 | 1.40 |

// provenance: ChEMBL document CHEMBL4431353
